Sourced from patent US20210025895A1

- ASSAY_NOTES: in vivo
- REPORTED_CONDITIONS: terminal half-life (T1/2)
MEASURED_PARAMETER: half-life

Field request: half-life | item: NCCCCN(Cc1nc2ccccc2[nH]1)[C@H]1CCCc2cccnc21
720 to 1440 min
